- STUDY_SYSTEM: Sodium-dependent serotonin transporter (Homo sapiens, UniProt P31645)
- Sequence (P31645 whole entry, looked up): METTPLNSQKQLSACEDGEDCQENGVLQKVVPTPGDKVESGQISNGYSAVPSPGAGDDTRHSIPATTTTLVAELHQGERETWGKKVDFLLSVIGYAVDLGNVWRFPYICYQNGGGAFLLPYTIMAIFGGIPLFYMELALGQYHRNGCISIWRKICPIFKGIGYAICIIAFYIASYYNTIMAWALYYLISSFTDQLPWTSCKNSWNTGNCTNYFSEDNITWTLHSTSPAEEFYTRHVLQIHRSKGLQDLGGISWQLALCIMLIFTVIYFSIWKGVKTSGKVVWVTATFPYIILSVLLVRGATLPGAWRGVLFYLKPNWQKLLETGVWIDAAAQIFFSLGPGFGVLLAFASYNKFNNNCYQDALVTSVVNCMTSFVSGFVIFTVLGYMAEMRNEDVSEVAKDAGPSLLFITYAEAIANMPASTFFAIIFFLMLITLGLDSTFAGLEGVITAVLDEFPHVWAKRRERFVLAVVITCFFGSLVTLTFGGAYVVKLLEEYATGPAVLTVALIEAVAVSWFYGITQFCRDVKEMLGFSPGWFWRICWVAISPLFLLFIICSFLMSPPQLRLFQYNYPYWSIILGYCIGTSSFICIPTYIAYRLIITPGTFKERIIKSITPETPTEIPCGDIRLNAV
- PROTOCOL_DESCRIPTION: Ratio of Ki for displacement of [3H]paroxetine to displacement of [3H]citalopram from human SERT expressed in […] cells
- Format: cell-based
Would you please tag the item y when its fold change (FC) is 40 or above, and n when it is below?

- SMILES_NOTATION: "N#Cc1ccc2[nH]cc([C@H]3CC[C@H](N4CCc5ccccc5C4)CC3)c2c1"
  CLASS_ASSIGNMENT: "n"

State whether the measured fold change (FC) reaches 40, counting equality as reaching it, for `N#Cc1ccc2[nH]cc([C@H]3CC[C@@H](N4CCc5cc(OCCCF)ccc5C4)CC3)c2c1`
y

State whether the measured fold change (FC) reaches 40, counting equality as reaching it, for `N#Cc1ccc2[nH]cc([C@H]3CC[C@@H](N4CCc5ccccc5C4)CC3)c2c1`
y

State whether the measured fold change (FC) reaches 40, counting equality as reaching it, for `COc1ccc2c(c1)CCN([C@H]1CC[C@H](c3c[nH]c4ccc(C#N)cc43)CC1)C2`
n

State whether the measured fold change (FC) reaches 40, counting equality as reaching it, for `N#Cc1ccc2[nH]cc([C@H]3CC[C@H](N4CCc5cc(OCCCF)ccc5C4)CC3)c2c1`
n

====

pKi: recorded values
- STUDY_SYSTEM: 5-hydroxytryptamine receptor 1A (Rattus norvegicus, UniProt P19327)
- Sequence (P19327 whole entry): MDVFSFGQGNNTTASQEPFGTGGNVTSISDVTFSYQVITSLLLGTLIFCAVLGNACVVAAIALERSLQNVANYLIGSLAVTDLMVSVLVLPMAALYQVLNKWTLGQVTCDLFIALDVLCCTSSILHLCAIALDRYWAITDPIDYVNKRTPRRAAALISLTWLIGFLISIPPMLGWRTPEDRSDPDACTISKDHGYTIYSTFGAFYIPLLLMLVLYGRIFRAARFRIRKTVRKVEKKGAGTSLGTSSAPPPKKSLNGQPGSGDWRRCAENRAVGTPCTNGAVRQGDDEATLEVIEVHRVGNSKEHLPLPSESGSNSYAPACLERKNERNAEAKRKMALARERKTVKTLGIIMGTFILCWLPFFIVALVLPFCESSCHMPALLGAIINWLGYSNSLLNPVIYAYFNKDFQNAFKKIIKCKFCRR
- PROTOCOL_DESCRIPTION: Displacement of [3H]8-OH-DPAT from 5HT1A receptor in rat cortical membrane
- Assay type: cell membranes
Reminder that pKi means the negative base-10 logarithm of the concentration expressed in mol/L.

Consider the reported pKi for these molecules:
- SMILES_NOTATION: "N#Cc1ccc2[nH]cc([C@H]3CC[C@H](N4CCc5cc(OCCCF)ccc5C4)CC3)c2c1"
  STUDY_SYSTEM: "5-hydroxytryptamine receptor 1A (Rattus norvegicus, UniProt P19327)"
  pKi: 5.54
- SMILES_NOTATION: "N#Cc1ccc2[nH]cc([C@H]3CC[C@H](N4CCc5ccccc5C4)CC3)c2c1"
  STUDY_SYSTEM: "5-hydroxytryptamine receptor 1A (Rattus norvegicus, UniProt P19327)"
  pKi: 5.60

Moving on to the next molecule.
Endpoint output: pKi of `COc1ccc2c(c1)CCN([C@H]1CC[C@@H](c3c[nH]c4ccc(C#N)cc43)CC1)C2` . Value?
4.88
